System: HCC-2998 colon
experiment_description: NCI tumour cell line growth inhibition, 48 h; in the data active = GI50 below about 0.43 µM; inactive = the rest
Classes used: yes (active), no (inactive)

>  <compound>
O=C(Nc1ccccc1Cl)c1ccc(NC2=C(Cl)C(=O)N(C3CCCCC3)C2=O)cc1

>  <group>
no

$$$$
>  <compound>
O=C1/C(=C/c2ccc(F)cc2)CN(C(=O)C(Cl)Cl)C/C1=C\c1ccc(F)cc1

>  <group>
yes

$$$$
>  <compound>
O=[N+]([O-])c1ccc(N=Nc2c(Cl)cc(O)cc2Cl)cc1

>  <group>
no

$$$$
>  <compound>
Cc1ccc2[nH]c(C(=O)NN3C(=O)C(C)SC34CCC(C)CC4)c(-c3ccccc3)c2c1 (centres undefined)

>  <group>
no

$$$$
>  <compound>
Cc1ccc(-c2nc(/C=N/Nc3cc(C)nc4ccc(Br)cc34)c(C)o2)cc1

>  <group>
no

$$$$
>  <compound>
C#CCOC(=O)/C=C/C(=O)Oc1ccc2c(C)cc(=O)oc2c1

>  <group>
no

$$$$
>  <compound>
COc1cc2c3c(n(CCCn4cncn4)c(=O)c2cc1OC)-c1cc2c(cc1C3=O)OCO2

>  <group>
no

$$$$
>  <compound>
CC1(C)CCc2c(c(N=Nc3ccccc3F)c3ccccc3c2O)O1

>  <group>
no

$$$$
>  <compound>
CC1=C2[C@@H](CC1)[C@]1(C)O[C@@](C(C)C)(C[C@H]1OC(=O)CO)[C@H]2OC(=O)CCCc1ccccc1

>  <group>
no

$$$$
>  <compound>
O=C(c1ccc2ccccc2c1)c1c(C(F)(F)F)n([O-])c2cc(C(F)(F)F)ccc2[n+]1=O

>  <group>
no

$$$$
>  <compound>
CCOC(=O)c1c2c(n3ccc(NC(=O)CCN4CCCCC4)cc13)C(=O)c1ncccc1C2=O

>  <group>
no

$$$$
>  <compound>
O=C(Nc1n[nH]c2nc(-c3ccc(O)cc3)c(Br)cc12)C1CC1

>  <group>
no

$$$$
>  <compound>
C/C(CC(C)(C)N1CC1)=N\NC(=O)Nc1cccc2ccccc12

>  <group>
no

$$$$
>  <compound>
Fc1ccc(-c2ncn(CCCN3CCOCC3)c2-c2ccncc2)cc1

>  <group>
no

$$$$
>  <compound>
COc1ccc(C2=NN(C(C)=O)C(c3ccc(Oc4ccnc5cc(Cl)ccc45)c(OC)c3)C2)cc1 (centres undefined)

>  <group>
no

$$$$
>  <compound>
CCN1C(=O)N(CC)C2C1NN=c1s/c(=C\c3ccc(C(F)(F)F)cc3)c(=O)n12 (centres undefined)

>  <group>
yes

$$$$
>  <compound>
CC[C@]12C=CCN3CC[C@@]4(c5ccc(OC)cc5N(C)[C@H]4[C@@](O)(C(=O)OC)[C@@H]1OC(=O)CCC(=O)O[C@H]1CC[C@H]4[C@@H]5CC[C@H]6CC(=O)CC[C@]6(C)[C@H]5CC[C@]14C)[C@@H]32

>  <group>
no

$$$$
>  <compound>
CCn1c(SCC(=O)Nc2cc(C(F)(F)F)ccc2Cl)nc2ccccc2c1=O

>  <group>
no

$$$$
>  <compound>
FC(F)(F)c1cc(NC(=S)N2c3ccccc3-n3cccc3C2c2cccnc2)cc(C(F)(F)F)c1 (centres undefined)

>  <group>
no

$$$$

* * *

Reported TGI values follow for various compounds
System: DLD-1 colon
experiment_description: NCI tumour cell line growth inhibition, 48 h

>  <compound>
C=CCCCN1CCCCC1=S

>  <TGI>
> 100 µM

$$$$
>  <compound>
CC[C@@]1(O)C[C@H](OC2CC(N(C)C)C(OC3CC(O)C(OC4CCC(=O)C(C)O4)C(C)O3)C(C)O2)c2c(cc3c(c2O)C(=O)c2c(O)cccc2C3=O)C1C(=O)OC (stereo partly drawn)

>  <TGI>
5.46 µM

$$$$
>  <compound>
C1=CC=C2NCCc3cccc(c3)CCNC3=CC=CC=CC3=NCCCCCCN=C2C=C1

>  <TGI>
> 100 µM

$$$$

* * *

System: NCI-H226 lung
experiment_description: NCI tumour cell line growth inhibition, 48 h
observed_property: TGI

>  <compound>
N#Cc1ccccc1NC(=O)C(=O)C(C(=O)c1ccncc1)C1OC(=O)c2ccccc21 (stereo not given)

>  <test_value>
> 100 µM

$$$$
>  <compound>
CN/N=C(\C)C(CN1CCCCC1)C(C1=C(O)c2ccccc2OC1)c1ccccc1 (stereo not given)

>  <test_value>
> 100 µM

$$$$
>  <compound>
Nc1nc(SCCNC(=O)CCc2ccc(O)c(I)c2)nc2c1ncn2C1OC(CO)C(O)C1O (stereo not given)

>  <test_value>
> 100 µM

$$$$
>  <compound>
COc1cc(NS(C)(=O)=O)ccc1Cc1c2ccccc2nc2ccccc12

>  <test_value>
0.462 µM

$$$$
>  <compound>
COC(=O)c1sc2c(=O)c(C(=O)OC)c(C(=O)OC)sc2c(=O)c1C(=O)OC

>  <test_value>
> 100 µM

$$$$
>  <compound>
C=CCOc1ccc(N)c([N+](=O)[O-])c1

>  <test_value>
> 100 µM

$$$$
>  <compound>
C#CCOC(=O)/C=C/C(=O)Oc1ccc2c(C)cc(=O)oc2c1

>  <test_value>
> 100 µM

$$$$
>  <compound>
NNC(=O)CC(=O)Nc1ccc(S(=O)(=O)c2ccc(NC(=O)CC(=O)NN)cc2)cc1

>  <test_value>
> 100 µM

$$$$
>  <compound>
O=C1/C(=C/c2ccccc2)CCc2ccc([N+](=O)[O-])cc21

>  <test_value>
> 100 µM

$$$$
>  <compound>
CC1(C)N=c2cc3c(cc2N1c1ccc(Cl)cc1)=Nc1ccccc1N3c1ccc(Cl)cc1

>  <test_value>
> 100 µM

$$$$
>  <compound>
CS(=O)(=O)NNS(=O)(=O)c1ccc(F)cc1

>  <test_value>
> 100 µM

$$$$
>  <compound>
C=CCn1c(=O)c(Br)nn(CCOCP(=O)(OCC)OCC)c1=O

>  <test_value>
> 100 µM

$$$$
>  <compound>
O=C(c1ccccc1)C1OC1C(=O)c1ccccc1 (stereo not given)

>  <test_value>
> 100 µM

$$$$
>  <compound>
O=c1cc(-c2ccccc2)oc2c1ccc1ccccc12

>  <test_value>
59.5 µM

$$$$
>  <compound>
C/C(CC(C)(C)N1CC1)=N\NC(=O)Nc1cccc2ccccc12

>  <test_value>
14.9 µM

$$$$
>  <compound>
CCCCCCCC(=O)OC[C@H](C[As](=O)(O)O)OC(=O)CCCCCCC

>  <test_value>
17.6 µM

$$$$
>  <compound>
CC(C)(CCl)NC(=O)c1cccc(C(=O)NC(C)(C)CCl)n1

>  <test_value>
> 100 µM

$$$$
>  <compound>
COc1ccc(NC(=O)C(C#N)=C(SC)SC)cc1

>  <test_value>
> 100 µM

$$$$
>  <compound>
[C-]#[N+]C(=C\c1ccc(O)cc1)/C(=C/c1ccc(O)cc1)[N+]#[C-]

>  <test_value>
> 22.7 µM

$$$$
>  <compound>
CCN(CCO)CCCC(C)Nc1ccnc2cc(Cl)ccc12 (stereo not given)

>  <test_value>
> 100 µM

$$$$
>  <compound>
C=CCc1cccc2cc(C(=O)Nc3ccc(C)cc3)c(=N)oc12

>  <test_value>
> 100 µM

$$$$
>  <compound>
COC(=O)N/N=C(\C)CC(=O)Nc1cccc([N+](=O)[O-])c1

>  <test_value>
> 100 µM

$$$$
>  <compound>
CN=c1ssc(=S)n1C(C)C

>  <test_value>
> 100 µM

$$$$
>  <compound>
C1C[OH+]CCNCC[OH+]CC[OH+]CCN1.N.[Cl-].[Pt+4]

>  <test_value>
> 100 µM

$$$$
>  <compound>
CCO[C@H]1O[C@@H]2OC3(C)CCC4[C@H](C)CCC([C@H]1C)[C@]42OO3 (stereo not given in full)

>  <test_value>
> 100 µM

$$$$
>  <compound>
CC[C@]12C=CCN3CC[C@@]4(c5ccc(OC)cc5N(C)[C@H]4[C@@](O)(C(=O)OC)[C@@H]1OC(=O)CCC(=O)O[C@H]1CC[C@H]4[C@@H]5CC[C@H]6CC(=O)CC[C@]6(C)[C@H]5CC[C@]14C)[C@@H]32

>  <test_value>
> 100 µM

$$$$
>  <compound>
CC1=C[C@H]([C@H]2C=C(C)C(C(N)=O)=CN2Cc2c(Cl)cccc2Cl)N(Cc2c(Cl)cccc2Cl)C=C1C(N)=O

>  <test_value>
> 75 µM

$$$$
>  <compound>
CCOC(=O)c1c2c(n3ccc(NC(=O)CCN4CCCCC4)cc13)C(=O)c1ncccc1C2=O

>  <test_value>
11.3 µM

$$$$
>  <compound>
COc1ccc(-c2cc(-c3ccc(OC)cc3)nc(NCCCNc3ccnc4cc(Cl)ccc34)n2)cc1

>  <test_value>
28.2 µM

$$$$
>  <compound>
CC1(O)C2(c3ccccc3)CCC[N+]1(C)CC2 (stereo not given)

>  <test_value>
> 100 µM

$$$$
>  <compound>
CC(=O)Nn1cnc(C(=N)C#N)c1N

>  <test_value>
> 100 µM

$$$$
>  <compound>
CC1OC(CC(=O)O)Cc2c1c(O)c1c(O)cc(-c3cc(=O)c4c(=O)c5c(c(=O)c=4c3=O)CC(CC(=O)O)OC5C)c(O)c1c2O (stereo not given)

>  <test_value>
> 75.4 µM

$$$$
>  <compound>
CC[C@H]1CCC/C=C/[C@@H]2C[C@H](O)C[C@H]2[C@H](O)/C=C/C(=O)O1

>  <test_value>
0.0424 µM

$$$$
>  <compound>
O=c1oc2cc(O)ccc2c2oc3cc(O)ccc3c12

>  <test_value>
> 125 µM

$$$$
>  <compound>
COc1ccc2c(=O)c3c([nH]c2c1)OCC3=O

>  <test_value>
> 100 µM

$$$$
